# STUDY_SYSTEM: bFGF(155) (basic fibroblast growth factor, FGF2) (Homo sapiens, UniProt P09038 SEQ:1-155)
# Sequence (P09038 134-288): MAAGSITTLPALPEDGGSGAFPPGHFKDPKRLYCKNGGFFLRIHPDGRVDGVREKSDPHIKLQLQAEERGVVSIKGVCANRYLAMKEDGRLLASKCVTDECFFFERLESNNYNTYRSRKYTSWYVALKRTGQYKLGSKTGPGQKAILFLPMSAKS
# ASSAY_NAME: filter; 1xPBS, 2 mM MgCl2, 0.01% HSA, 1 mM DTT, 37 C; Table 7 gives a different KD of 1.3e-10 M
# RUN_CONDITIONS: tags: expressed in E. coli; Bachem California lot SN 433; label: 5'-32P
QUANTITY_MEASURED: Kd (nM)
Give bare numbers, in nM.

Data request, read-out Kd, for 06.15 (ssDNA, 5-bromo-2'-deoxyuridine (BrdU) substituted for T) DNA: GGGAGGACGATGCGGGCGAAGGCACACCGAGTTCATAGTATCCCACAGACGACGAGCGGGA 0.016
